assay: Metabolic stability test in pooled human liver microsomes; type: in vitro ADME; conditions: human liver microsomes 0.5 mg protein/mL, 1 mmol/L NADPH, 37° C., 30 minutes
OBSERVATION TYPE: MS_h_% (remaining amount of compound after reaction, 0 minute = 100%)
Report as a plain number; the unit % is understood.

These solved cases illustrate the format of a correct answer.
> print(dat)
                                   compound  measured.result
1  Cc1nc2ccc(C#N)cn2c1C(=O)NCc1ccc(N2CCN(c3ccc(OC(F)(F)F)cc3)[C@@H](C)C2)c(F)c1.Cl               94
2  Cc1cn2c(C(=O)NCc3ccc(N4CCC(c5ccc(OC(F)(F)F)cc5)CC4)c(Cl)c3)c(C)nc2s1.Cl               84
3  CCc1nc2cc(F)ccn2c1C(=O)NCc1ccc(N2CCN(c3ccc(C(F)(F)F)cn3)[C@@H](C)C2)c(F)c1.Cl [Compound I-1-113]               79

Please give the measured MS_h_% (remaining amount of compound after reaction, 0 minute = 100%) for this compound: CCc1nc2ccc(Cl)cn2c1C(=O)NCc1ccc(N2CCN(c3ccc(OC(F)(F)F)cc3F)[C@@H](CC)C2)c(F)c1.Cl
72.2

Also CCc1nc2ccc(Cl)cn2c1C(=O)NCc1ccc(N2CCN(c3ccc(OC(C)C)cc3)C(C)(C)C2)c(F)c1 ?
94

Also COc1ccn2nc(C)c(C(=O)NCc3ccc(N4CCN(c5ccc(OC(F)(F)F)cc5)[C@@H](C)C4)cc3)c2c1 ?
58.5

Also Cc1ccn2c(C(=O)NCc3ccc(C4CCN(c5cccc(OC(F)(F)F)c5)CC4)c(F)c3)c(C)nc2c1 ?
87

====

assay: Metabolic stability test in pooled human liver microsomes; format: in vitro ADME; details: human liver microsomes 0.5 mg protein/mL, 1 mmol/L NADPH, 37° C., 30 minutes
OBSERVATION TYPE: MS_h_% (remaining amount of compound after reaction, 0 minute = 100%)
Report as a plain number; the unit % is understood.

> print(dat)
                           structure.smiles  value.unit  measured.result
1  CCc1nc2cc(F)ccn2c1C(=O)NCc1ccc(C2CCN(c3ccc(OCC(F)(F)F)nc3)CC2)cc1F.Cl           %               85
2  CCc1nc2cc(F)ccn2c1C(=O)NCc1ccc(N2CCN(c3ccc(OC(F)(F)F)c(F)c3)[C@@H](C)C2)c(F)c1.Cl           %               83

Proceeding to the next compound to report its MS_h_% (remaining amount of compound after reaction, 0 minute = 100%).
Please give the measured MS_h_% (remaining amount of compound after reaction, 0 minute = 100%) for this compound: CCc1nc2ccc(Cl)cn2c1C(=O)NCc1ccc(N2CCN(c3ncc(C(F)(F)F)cc3F)[C@@H](C)C2)c(F)c1.Cl
77

====

Measured MS_h_% (remaining amount of compound after reaction, 0 minute = 100%) values are reported for all entries that follow.
Experiment: Metabolic stability test in pooled human liver microsomes
Type: in vitro ADME
Conditions: human liver microsomes 0.5 mg protein/mL, 1 mmol/L NADPH, 37° C., 30 minutes
Procedure: Using a commercially available pooled human liver microsomes, a compound of the present invention was reacted for a constant time, a remaining rate was calculated by comparing a reacted sample and an unreacted sample, thereby, a degree of metabolism in liver was assessed. […]
Report as a plain number; the unit % is understood.

These solved cases illustrate the format of a correct answer.
> print(dat)
                           structure.smiles  measured.result
1  Cc1cn2c(C(=O)NCc3ccc(N4CC5(CCN(c6ccc(C(F)(F)F)cc6)CC5)C4)c(F)c3)c(C)nc2s1             64.1
2  CCc1nc2ccc(Cl)cn2c1C(=O)NCc1ccc(C2CCN(c3ccc(OC4CC4)cc3)CC2)c(F)c1.Cl               64
3  Cc1ccn2c(C(=O)NCc3ccc(C4CCN(c5ccc(OC(C)C)cc5)CC4)c(F)c3)c(C)nc2c1               88

Proceeding to the next compound to report its MS_h_% (remaining amount of compound after reaction, 0 minute = 100%).
Please give the measured MS_h_% (remaining amount of compound after reaction, 0 minute = 100%) for this compound: Cc1ccn2c(C(=O)NCc3cc(F)c(N4CCC(c5ccc(OC(F)(F)F)cc5)CC4)c(F)c3)c(C)nc2c1.Cl
93

====

experiment: Metabolic stability test in pooled human liver microsomes; format: in vitro ADME; details: human liver microsomes 0.5 mg protein/mL, 1 mmol/L NADPH, 37° C., 30 minutes
Measured MS_h_% (remaining amount of compound after reaction, 0 minute = 100%) values are reported for all entries that follow.
Returns: string containing the number followed by the unit.

> print(dat)
                                   compound  measured.result
1  Cc1ccn2c(C(=O)NCc3ccc(O[C@H]4CCN(c5ccc(OC(F)(F)F)cc5)C4)c(F)c3)c(C)nc2c1 [Compound I-3-49]            60.2%
2  CCCC[C@H]1CN(c2ccc(CNC(=O)c3c(CC)nc4cc(F)ccn34)cc2F)CCN1c1ccc(OC(F)(F)F)cc1.Cl [Compound I-2-6]            80.8%
3  CCc1nc2cc(F)ccn2c1C(=O)NCc1ccc(N2CCN(c3ccc(OC(F)(F)F)cc3)[C@@H](CC)C2)c(F)c1.Cl [Compound I-2-4]            90.1%

Please give the measured MS_h_% (remaining amount of compound after reaction, 0 minute = 100%) for this compound: COc1ccn2nc(C)c(C(=O)NCc3ccc(C4CCN(c5ccc(OC(F)(F)F)cc5)CC4)c(F)c3)c2c1.Cl [Compound I-1-89]
65%

Also Cc1ccc2nc(C)c(C(=O)NCc3ccc(Oc4cccc(C(F)(F)F)c4)cc3)n2c1 [Compound I-3-21] ?
79.1%

Also CCc1nc2cc(F)ccn2c1C(=O)NCc1ccc(N2CCN(c3ccc(OC(F)(F)F)cn3)[C@@H](C)C2)c(F)c1.Cl [Compound I-1-108] ?
71%

Also Cc1nc2ccc(Cl)cn2c1C(=O)NCc1ccc(N2CCN(c3ccc(OC(F)(F)F)cc3)[C@@H](C)C2)c(Cl)c1.Cl [Compound I-1-140] ?
89%

Also CCOc1ccc(N2CCN(c3ccc(CNC(=O)c4c(CC)nc5ccc(Cl)cn45)cc3F)C[C@@H]2C)cc1OC.Cl [Compound I-1-55] ?
84%

Also CCc1nc2ccc(Cl)cn2c1C(=O)NCc1ccc(C2CCN(c3ccc(OC(F)(F)F)cc3)CC2)c(F)c1 [Compound I-1-20] ?
83%

====

test: Metabolic stability test in pooled human liver microsomes; assay type: in vitro ADME; details: human liver microsomes 0.5 mg protein/mL, 1 mmol/L NADPH, 37° C., 30 minutes
OBSERVATION TYPE: MS_h_% (remaining amount of compound after reaction, 0 minute = 100%)
Report as a plain number; the unit % is understood.

These solved cases illustrate the format of a correct answer.
> print(dat)
                           structure.smiles  measured.result
1  CCCCOc1ccc(N2CCC(c3ccc(CNC(=O)c4c(CC)nc5ccc(Cl)cn45)c(F)c3)CC2)cc1.Cl               80
2  Cc1cn2c(C(=O)NCc3cc(F)c(N4CCC(c5ccc(OC(F)(F)F)cc5)CC4)c(F)c3)c(C)nc2s1.Cl             81.4
3  Cc1ccn2c(C(=O)NCc3ccc(N4CCN(c5ccc(OC(F)(F)F)cc5)[C@@H](C)C4)cc3)c(C)nc2c1             75.4

Proceeding to the next compound to report its MS_h_% (remaining amount of compound after reaction, 0 minute = 100%).
Please give the measured MS_h_% (remaining amount of compound after reaction, 0 minute = 100%) for this compound: CCc1nc2cc(F)ccn2c1C(=O)NCc1cc(F)c(N2CCC(c3ccc(OC(F)(F)F)cc3)CC2)c(F)c1.Cl
89

====

assay: Metabolic stability test in pooled human liver microsomes; assay type: in vitro ADME; conditions: human liver microsomes 0.5 mg protein/mL, 1 mmol/L NADPH, 37° C., 30 minutes
Measured MS_h_% (remaining amount of compound after reaction, 0 minute = 100%) values are reported for all entries that follow.
Report as a plain number; the unit % is understood.

These solved cases illustrate the format of a correct answer.
> print(dat)
                                   compound  measured.result
1  CCc1nc2cc(F)ccn2c1C(=O)NCc1ccc(N2CCC(c3ccc(OC(F)(F)F)cc3)CC2)c(F)c1.Cl [Compound I-1-68]               91
2  [2H]c1c(C([2H])([2H])[2H])c([2H])n2c(C(=O)NCc3cc(F)ccc3F)c(C)nc2c1[2H] [Compound I-3-39]             67.2

Proceeding to the next compound to report its MS_h_% (remaining amount of compound after reaction, 0 minute = 100%).
Please give the measured MS_h_% (remaining amount of compound after reaction, 0 minute = 100%) for this compound: [2H]c1c(C([2H])([2H])[2H])c([2H])n2c(C(=O)NCc3ccc(Oc4cccc(C(F)(F)F)c4)cc3)c(C)nc2c1[2H] [Compound I-3-15]
82.4
